system: HepG2 cells; assay: Test Example 2: inhibition of apolipoprotein B secretion from HepG2 cells, ELISA (also used for metabolites in Test Example 8); format: cell-based; settings: Homo sapiens, 24 hours, apo B in supernatant by ELISA, read-out: Test Example 2 Inhibition of apo B secretion IC50
IC50 strictly less than 9 nM = Satisfied. Otherwise Not satisfied.

For orientation, consider the following solved cases.
structure smiles string | classification
O=C(Cc1ccc(NC(=O)c2ccccc2-c2ccc(C(F)(F)F)cc2)cc1)OCC(C(=O)NCC(F)(F)F)(C(=O)NCC(F)(F)F)c1ccccc1 | Not satisfied
COC(=O)C(COC(=O)Cc1ccc(NC(=O)c2ccccc2-c2ccc(C(F)(F)F)cc2)c(C(=O)N(C)C)c1)(C(=O)OC)c1ccccc1 | Satisfied
CCOC(=O)C(COC(=O)Cc1ccc(NC(=O)c2cccc(OC)c2-c2ccc(C(F)(F)F)cc2)c(C(=O)N(C)C)c1)(C(=O)OCC)c1ccccc1 | Satisfied
CCOC(=O)C(COC(=O)Cc1ccc(NC(=O)c2ccc(OCC)cc2-c2ccc(C(F)(F)F)cc2)c(C(=O)N(C)C)c1)(C(=O)OCC)c1ccccc1 | Satisfied

Does the reported IC50 of CCOC(=O)C(COC(=O)Cc1ccc(N(C)C(=O)c2ccccc2-c2ccc(C(F)(F)F)cc2)cc1)(C(=O)OCC)c1ccccc1 stay below 9 nM?
Not satisfied

Hello, the source for this data is patent US7625948B2, in case you need it.
